target: HIF1A
experiment.description: HeLa, 100 nM transfected, 24 h, mean of 3
experimental.context: ASO
Bases are written 5' to 3'; sugars and linkages follow in the same order, as letters with counts (s phosphorothioate, o phosphodiester; PS: all linkages phosphorothioate). C may stand for cytosine or 5-methylcytosine; the collection does not tell. l = locked nucleic acid (LNA); d = 2'-deoxy (DNA)
Recorded caspase activation (% of PBS control) for the following sequences
readout.name: caspase activation (% of PBS control)

entry.sequence	test.value
TGGCAAGCATCCTGTA (sugars lddllddddddldlll, PS)	353
GTTACTGCCTTCTTAC (sugars l2 d1 l1 d10 l2, PS)	97.3
TGGCAAGCATCCTGTA (sugars ldlddddddddlddll, PS)	218
CAAGCATCCTGTA (sugars ldldddddddldl, PS)	136
TTACTGCCTTCTT (sugars l1 d10 l2, PS)	102
TGGCAAGCATCCTGTA (sugars l3 d9 l1 d2 l1, PS)	210
TGGCAAGCATCCT (sugars l3 d8 l2, PS)	217
TGGCAAGCATCCTGTA (sugars l2 d1 l2 d9 l2, PS)	419
TGGCAAGCATCCTGTA (sugars lldllddddddldlll, PS)	438
TGGCAAGCATCCTGTA (sugars l1 d2 l1 d8 l4, PS)	398
GTTACTGCCTTCTTAC (sugars l1 d14 l1, PS)	102
TGGCAAGCATCCTGTA (sugars lddldddddddldldl, PS)	274

Sourced from the OligoGym collection
